# system.tested: AHR (Homo sapiens, UniProt P35869)
# Sequence (P35869 11-848): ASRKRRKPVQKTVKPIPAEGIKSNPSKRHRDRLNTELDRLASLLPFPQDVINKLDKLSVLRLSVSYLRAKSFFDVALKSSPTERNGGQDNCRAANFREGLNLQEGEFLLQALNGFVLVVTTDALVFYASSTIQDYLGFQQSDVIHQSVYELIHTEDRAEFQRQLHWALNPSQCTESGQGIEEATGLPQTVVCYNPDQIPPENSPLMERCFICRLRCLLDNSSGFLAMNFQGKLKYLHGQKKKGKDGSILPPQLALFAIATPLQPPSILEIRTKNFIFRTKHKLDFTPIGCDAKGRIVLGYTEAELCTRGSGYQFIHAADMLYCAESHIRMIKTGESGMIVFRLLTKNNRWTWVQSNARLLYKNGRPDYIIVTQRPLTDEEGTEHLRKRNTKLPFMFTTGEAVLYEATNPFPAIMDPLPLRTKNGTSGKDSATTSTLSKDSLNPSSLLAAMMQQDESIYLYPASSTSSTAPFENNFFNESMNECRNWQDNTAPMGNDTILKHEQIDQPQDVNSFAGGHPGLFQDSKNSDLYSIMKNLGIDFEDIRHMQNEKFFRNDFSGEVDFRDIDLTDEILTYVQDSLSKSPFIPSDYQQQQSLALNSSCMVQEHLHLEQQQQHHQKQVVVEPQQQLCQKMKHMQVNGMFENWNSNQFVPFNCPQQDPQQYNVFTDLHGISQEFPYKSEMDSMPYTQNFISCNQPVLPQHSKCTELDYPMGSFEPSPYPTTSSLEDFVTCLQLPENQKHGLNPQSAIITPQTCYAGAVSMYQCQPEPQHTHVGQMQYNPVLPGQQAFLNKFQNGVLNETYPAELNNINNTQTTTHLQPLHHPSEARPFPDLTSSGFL
# assay.overview: In vitro assay 1: antagonism in human cell line (transactivation assay, U87 cells prestimulated with kynurenic acid, DRE firefly luciferase reporter)
# Format: cell-based
# Set-up: host or cells: U87 glioblastoma cells, stably transfected with DRE firefly luciferase and renilla reporter constructs
# run.conditions: 150 uM kynurenic acid, 20 hours, read-out: Assay 1: AHR-luc Hum Antagonism IC50
measured.attribute: pIC50
// field semantics: pIC50 = negative decimal log of concentration (mol/L)

Problem: Any idea what pIC50 came out for Cn1cc(-n2nc(-c3ccc(C(F)F)cc3)cc(C(=O)N[C@@H]3COC[C@@H]3O)c2=O)cn1 (single isomer, unassigned) [Example 320] on AHR (Homo sapiens, UniProt P35869)?
Solution: 7.36

Problem: Next entry: "C[C@@H](CO)NC(=O)c1cc(-c2ccc(OC(F)F)cc2)nn(-c2cnn(C)c2)c1=O"
Solution: 7.66

Problem: Next entry: "Cn1cc(-n2nc(-c3ccc(C(F)(F)F)cc3)cc(C(=O)N[C@H]3CCC[C@H]3O)c2=O)cn1"
Solution: 9.00

Problem: Next entry: "Cn1cc(-n2nc(-c3ccc(C(F)F)cc3)cc(C(=O)NCC(C)(C)O)c2=O)cn1"
Solution: 7.53

Problem: Next entry: "O=C(N[C@H](CO)CF)c1cc(-c2ccc(C(F)(F)F)cc2)nn(-c2cccnc2)c1=O"
Solution: 8.44

Problem: Next entry: "C[C@H](CO)NC(=O)c1cc(-c2ccc(Cl)cc2)nn(-c2cccnc2)c1=O"
Solution: 6.67

Problem: Next entry: "C[C@@H](CO)NC(=O)c1cc(-c2ccc(Cl)cc2)nn(-c2cnn(C3CCC3)c2)c1=O"
Solution: 5.80

Problem: Next entry: "O=C(N[C@H]1CCCC[C@H]1O)c1cc(-c2ccc(Cl)cc2)nn(-c2cccnc2)c1=O"
Solution: 8.42
